- Tested on: IL-6
- assay: IL-6 secretion by ELISA in LPS-treated RAW 264.7 macrophages
- Format: cell-based
- assayConditions: RAW 264.7, serum-free medium, 1 or 10 μM 2 hours, then 10 ng/mL LPS 6 hours, FIG. 19
readout: secretion of IL-6

1) CC(C)=CCC[C@](C)(O)[C@H]1CC[C@]2(C)[C@@H]1[C@H](O)C[C@@H]1[C@@]3(C)CC[C@H](O[C@@H]4O[C@H](CO)[C@@H](O)[C@H](O)[C@H]4O[C@@H]4O[C@H](CO)[C@@H](O)[C@H](O)[C@H]4O)C(C)(C)[C@@H]3CC[C@]12C [Rg3, ginsenoside Rg3]: decreased
2) CC(C)=CCC[C@](C)(O[C@@H]1O[C@H](CO[C@@H]2O[C@H](CO)[C@@H](O)[C@H](O)[C@H]2O)[C@@H](O)[C@H](O)[C@H]1O)[C@H]1CC[C@]2(C)[C@@H]1[C@H](O)C[C@@H]1[C@@]3(C)CC[C@H](O[C@@H]4O[C@H](CO)[C@@H](O)[C@H](O)[C@H]4O[C@@H]4O[C@H](CO)[C@@H](O)[C@H](O)[C@H]4O)C(C)(C)[C@@H]3CC[C@]12C [Rb1, ginsenoside Rb1]: decreased
3) CC(C)=CCC[C@](C)(O[C@@H]1O[C@H](CO)[C@@H](O)[C@H](O)[C@H]1O)[C@H]1CC[C@]2(C)[C@@H]1[C@H](O)C[C@@H]1[C@@]3(C)CC[C@H](O)C(C)(C)[C@@H]3[C@@H](O[C@@H]3O[C@H](CO)[C@@H](O)[C@H](O)[C@H]3O)C[C@]12C [Rg1, ginsenoside Rg1]: decreased

src = patent US12252508B2
